Target: HLA-B*18:01
Experiment: IEDB peptide-MHC binding, purified MHC/direct/fluorescence; filed as Kd, often an IC50 or EC50 that approximates it; bounds were set here for any values at or beyond the usual limits of such assays
Details: source organism: Listeria monocytogenes serotype 4b str. H7858
MEASURED_ENDPOINT: Kd

sequence_content=FRDEAGAIL observed_measurement="≥ 20 µM"

###

Biological target: HLA-A*02:02
Test: IEDB peptide-MHC binding, purified MHC/competitive/radioactivity; filed as Kd, often an IC50 or EC50 that approximates it; bounds were set here for any values at or beyond the usual limits of such assays
Conditions: source organism: Hepatitis B virus
pKd: −log10 of the molar value.
MEASURED_ENDPOINT: pKd

sequence_content=FLPSDFFPSV observed_measurement=8.70

###

Molecular target: HLA-A*02:01
Assay: IEDB peptide-MHC binding, purified MHC/direct/fluorescence; filed as Kd, often an IC50 or EC50 that approximates it; bounds were set here for any values at or beyond the usual limits of such assays
Settings: source organism: Mammarenavirus lassaense
MEASURED_ENDPOINT: Kd

sequence_content=SHGIDVTDL measured_endpoint=Kd observed_measurement="≥ 20 µM"

###

Target: HLA-B*15:01
Assay: IEDB peptide-MHC binding, purified MHC/competitive/fluorescence; bounds were set here for any values at or beyond the usual limits of such assays
Conditions: source organism: Zaire ebolavirus
pIC50: −log10 of the molar value.
# pIC50 per entry
MEASURED_ENDPOINT: pIC50

sequence_content=VRQRVIPVY censoring_qualifier== observed_measurement=5.49
sequence_content=FSILNRKAI censoring_qualifier== observed_measurement=4.45
sequence_content=QQTNAMVTL censoring_qualifier=≤ observed_measurement=4.12
sequence_content=GSYGEYQSY censoring_qualifier== observed_measurement=5.45
sequence_content=NSTHNTPVY censoring_qualifier=≤ observed_measurement=3.92
sequence_content=RVIPVYQVN censoring_qualifier=≤ observed_measurement=4.14
sequence_content=KIRSEELSF censoring_qualifier=≤ observed_measurement=4.04
sequence_content=VQRQIQVHA censoring_qualifier== observed_measurement=4.87
sequence_content=KAALSSLAK censoring_qualifier=≤ observed_measurement=3.96

###

Biological target: HLA-A*31:01
Experiment: IEDB peptide-MHC binding, purified MHC/direct/fluorescence; filed as Kd, often an IC50 or EC50 that approximates it; bounds were set here for any values at or beyond the usual limits of such assays
Conditions: source organism: Vibrio vulnificus
MEASURED_ENDPOINT: Kd

sequence_content=STDTRHIPQ observed_measurement="≥ 20 µM"

###

Target: HLA-B*40:01
Test: IEDB peptide-MHC binding, purified MHC/competitive/radioactivity; filed as Kd, often an IC50 or EC50 that approximates it; bounds were set here for any values at or beyond the usual limits of such assays
Details: source organism: Mammarenavirus brazilense
pKd: −log10 of the molar value.
MEASURED_ENDPOINT: pKd

sequence_content=GEHSLPRCW observed_measurement="≤ 4.37"
sequence_content=LESAQPGLL observed_measurement=6.83
sequence_content=IDPTLTTWI observed_measurement="≤ 4.27"

###

Target: HLA-A*02:01
Test: IEDB peptide-MHC binding, purified MHC/direct/fluorescence; filed as Kd, often an IC50 or EC50 that approximates it; bounds were set here for any values at or beyond the usual limits of such assays
Details: source organism: Brucella suis
pKd: −log10 of the molar value.
MEASURED_ENDPOINT: pKd

sequence_content=DVIGNDRQE observed_measurement="≤ 4.70"
